Data credit: paper PMC3725505

- Target system: Kelch domain of human Keap1 (residues 321-609) (human), Q14145
- Sequence (Q14145 321-609): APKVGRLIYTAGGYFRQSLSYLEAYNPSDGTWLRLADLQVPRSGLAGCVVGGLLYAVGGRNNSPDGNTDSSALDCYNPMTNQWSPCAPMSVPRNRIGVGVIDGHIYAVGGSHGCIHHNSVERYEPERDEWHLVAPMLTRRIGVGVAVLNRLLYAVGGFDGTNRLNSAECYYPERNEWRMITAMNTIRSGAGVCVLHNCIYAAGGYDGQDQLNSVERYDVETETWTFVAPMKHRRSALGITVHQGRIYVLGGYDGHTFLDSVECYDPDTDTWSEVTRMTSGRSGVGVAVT
- Measurement notes: ITC
Listing of entries alongside the reported log10 of Kd.
Record value = log10 of Kd given in nM.

Example cases with answers are listed next.
Binder	log10 of Kd
ANGNANEENGEQEADNEVDE (modifications not checked) [PTMA isoform 2 peptide (20-mer)]	3.42
FAQLQLDEETGEFLPIQPAQ (modifications not checked) [NRF2 site 1 peptide (20-mer)]	1.36
FAQLQLDPETGEFLPIQPAQ (modifications not checked) [NRF2 site 1 E78P peptide (20-mer)]	0.85
ANGNAENEENGEQEADNEVD (modifications not checked) [PTMA isoform 1 peptide (20-mer)]	4.06

Turning now to a further binder:
LSSKEVDPSTGELQSLQMPE (modifications not checked) [p62 peptide (20-mer)] has a reported log10 of Kd of 3.11
